Sourced from patent US10988456B2

Assignment: determine reported IC50 for the given molecules.
Target: Ret (V804M) (Homo sapiens, UniProt P07949, V804M)
Construct: purchased
Sequence (P07949 29-1114 V804M): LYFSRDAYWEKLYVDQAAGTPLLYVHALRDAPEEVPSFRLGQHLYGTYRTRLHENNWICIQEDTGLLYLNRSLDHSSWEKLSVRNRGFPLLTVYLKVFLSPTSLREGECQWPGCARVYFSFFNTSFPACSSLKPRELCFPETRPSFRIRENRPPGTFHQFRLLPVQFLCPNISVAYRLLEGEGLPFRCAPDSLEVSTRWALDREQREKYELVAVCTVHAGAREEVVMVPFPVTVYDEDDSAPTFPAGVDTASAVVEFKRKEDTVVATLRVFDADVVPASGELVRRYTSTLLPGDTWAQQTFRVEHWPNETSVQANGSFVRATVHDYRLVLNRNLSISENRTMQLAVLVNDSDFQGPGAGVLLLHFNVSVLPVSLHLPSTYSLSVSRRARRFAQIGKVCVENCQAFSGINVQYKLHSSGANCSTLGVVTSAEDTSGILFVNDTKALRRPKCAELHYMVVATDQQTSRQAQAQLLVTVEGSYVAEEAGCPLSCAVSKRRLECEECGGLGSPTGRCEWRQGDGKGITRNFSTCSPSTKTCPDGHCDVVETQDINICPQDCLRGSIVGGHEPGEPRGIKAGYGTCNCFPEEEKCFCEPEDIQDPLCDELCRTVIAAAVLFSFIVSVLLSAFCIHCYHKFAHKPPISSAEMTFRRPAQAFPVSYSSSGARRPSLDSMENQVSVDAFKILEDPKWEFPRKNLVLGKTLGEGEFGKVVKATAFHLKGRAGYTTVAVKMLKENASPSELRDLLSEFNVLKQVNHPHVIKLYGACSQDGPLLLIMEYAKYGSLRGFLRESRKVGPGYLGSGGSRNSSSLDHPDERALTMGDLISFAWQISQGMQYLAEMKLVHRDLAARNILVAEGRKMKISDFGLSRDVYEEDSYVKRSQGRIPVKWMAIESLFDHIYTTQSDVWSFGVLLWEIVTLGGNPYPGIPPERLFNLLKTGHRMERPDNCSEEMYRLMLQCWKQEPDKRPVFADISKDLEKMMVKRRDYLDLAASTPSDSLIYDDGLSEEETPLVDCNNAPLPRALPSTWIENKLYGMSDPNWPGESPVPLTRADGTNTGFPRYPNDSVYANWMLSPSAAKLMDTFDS
Assay: Inhibition of RET-related mutant enzyme activity (ELISA)
Type: biochemical
Details: measured twice, Mean ± SD
Numbers only, in nM.

> print(dat)
                            chemical.smiles  readout.value
1  CN1CCN(Cc2ccc(NC(=O)c3cccc(C#Cc4cccnc4N)c3)cc2C(F)(F)F)CC1           17.9

// `CN1CCN(Cc2ccc(NC(=O)c3ccc(Cl)c(C#Cc4cccnc4N)c3)cc2C(F)(F)F)CC1` : IC50 value = 8.4

====

Target: FGFR1 (Homo sapiens, UniProt P11362)
Sequence (P11362 22-822): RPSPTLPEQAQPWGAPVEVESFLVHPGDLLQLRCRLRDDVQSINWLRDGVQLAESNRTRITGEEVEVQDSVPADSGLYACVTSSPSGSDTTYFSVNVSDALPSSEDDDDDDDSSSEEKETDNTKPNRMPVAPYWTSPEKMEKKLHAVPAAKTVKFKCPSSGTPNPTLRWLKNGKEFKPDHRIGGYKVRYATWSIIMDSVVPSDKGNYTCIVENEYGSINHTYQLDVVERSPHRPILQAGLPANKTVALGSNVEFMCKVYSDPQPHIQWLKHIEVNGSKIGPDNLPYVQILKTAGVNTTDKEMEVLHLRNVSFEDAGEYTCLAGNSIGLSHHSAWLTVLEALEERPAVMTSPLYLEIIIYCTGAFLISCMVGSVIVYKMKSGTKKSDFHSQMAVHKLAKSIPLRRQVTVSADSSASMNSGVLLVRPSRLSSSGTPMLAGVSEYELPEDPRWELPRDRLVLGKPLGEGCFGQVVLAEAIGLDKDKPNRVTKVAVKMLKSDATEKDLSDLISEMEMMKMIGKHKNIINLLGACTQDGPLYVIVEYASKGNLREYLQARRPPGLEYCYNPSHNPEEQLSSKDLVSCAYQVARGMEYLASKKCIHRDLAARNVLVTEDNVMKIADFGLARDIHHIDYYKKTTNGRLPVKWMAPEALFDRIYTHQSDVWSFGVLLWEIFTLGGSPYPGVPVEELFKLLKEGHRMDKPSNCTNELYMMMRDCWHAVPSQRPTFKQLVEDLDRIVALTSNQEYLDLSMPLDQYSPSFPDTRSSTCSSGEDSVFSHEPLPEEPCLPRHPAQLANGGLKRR
Experiment: Inhibition of receptor tyrosine kinase activity at molecular level (ELISA, Poly(Glu,Tyr)4:1 substrate phosphorylation)
Type: biochemical
Details: 10 nM compound; average of two independent experiments
Experimental Readout: 10 nM inhibition ratio FGFR1
One number for each entry.

> print(dat)
                                   molecule  readout.value
1  CN1CCN(Cc2ccc(NC(=O)c3ccc(F)c(C#Cc4cccnc4N)c3)cc2C(F)(F)F)CC1 [Example 2]           73.0

Kindly give each listed record's 10 nM inhibition ratio FGFR1.
1. CNc1cncc(C#Cc2cc(C(=O)Nc3ccc(CN4CCN(C)CC4)c(C(F)(F)F)c3)ccc2C)c1 [Example A34, reference compound]
2. [2H]C([2H])([2H])N1CCN(Cc2ccc(NC(=O)c3ccc(Cl)c(C#Cc4cccnc4N)c3)cc2C(F)(F)F)CC1 [Example 53]
3. CN1CCN(Cc2ccc(NC(=O)c3cc(C#Cc4cccnc4N)cc(C(F)(F)F)c3)cc2C(F)(F)F)CC1 [Example 10]
4. CN1CCN(Cc2ccc(NC(=O)c3ccc(Cl)c(C#Cc4c(F)ccnc4N)c3)cc2C(F)(F)F)CC1 [Example 49]
5. COc1cc(C#Cc2cccnc2N)cc(C(=O)Nc2ccc(CN3CCN(C)CC3)c(C(F)(F)F)c2)c1 [Example 13]
6. CN1CCN(Cc2ccc(NC(=O)c3ccc(Cl)c(C#Cc4cc(Cl)cnc4N)c3)cc2C(F)(F)F)CC1 [Example 17]
7. CC(=O)Nc1cnc(N)c(C#Cc2cccc(C(=O)Nc3ccc(CN4CCN(C)CC4)c(C(F)(F)F)c3)c2)c1 [Example 37]

1. 33.2
2. 78.3
3. 36
4. 77.1
5. 70.2
6. 68.0
7. 48.1

Kindly give each listed record's 10 nM inhibition ratio FGFR1.
1. CN1CCN(Cc2ccc(NC(=O)c3ccc(Cl)c(C#Cc4cc(C(F)(F)F)cnc4N)c3)cc2C(F)(F)F)CC1 [Example 20]
2. CN1CCN(Cc2ccc(NC(=O)c3ccc(Cl)c(C#Cc4cc(OCCO)cnc4N)c3)cc2C(F)(F)F)CC1 [Example 26]
3. CNc1cnc(N)c(C#Cc2cc(C(=O)Nc3ccc(CN4CCN(C)CC4)c(C(F)(F)F)c3)ccc2Cl)c1 [Example 35]

1. 71.1
2. 77.2
3. 57.9

Kindly give each listed record's 10 nM inhibition ratio FGFR1.
1. CN1CCN(Cc2ccc(NC(=O)c3cc(F)cc(C#Cc4cccnc4N)c3)cc2C(F)(F)F)CC1 [Example 7]
2. CN1CCC(Oc2ccc(NC(=O)c3ccc(Cl)c(C#Cc4cccnc4N)c3)cc2C(F)(F)F)CC1 [Example 41]
3. CN1CCN(Cc2ccc(NC(=O)c3ccc(Cl)c(C#Cc4nccnc4N)c3)cc2C(F)(F)F)CC1 [Example 46]
4. CN(C)CCOc1cnc(N)c(C#Cc2cc(C(=O)Nc3ccc(CN4CCN(C)CC4)c(C(F)(F)F)c3)ccc2Cl)c1 [Example 29]
5. COc1cnc(N)c(C#Cc2cc(C(=O)Nc3ccc(CN4CCN(C)CC4)c(C(F)(F)F)c3)ccc2Cl)c1 [Example 22]
6. CN1CCN(Cc2ccc(NC(=O)c3ccc(Cl)c(C#Cc4cc(F)cnc4N)c3)cc2C(F)(F)F)CC1 [Example 16]

1. 80.7
2. 53.4
3. 48.5
4. 44.9
5. 75.1
6. 70.5

====

Assay: Pharmacokinetic experiment in rat (IV and PO, plasma LC-MS/MS)
Details: SD, rat, plasma, iv, 2 mg/kg
Experimental: Ponatinib (AP24534) was administered intravenously (IV) and orally (PO) to SD rats. Blood samples were taken at different time points. LC-MS/MS was used to determine the concentration of compound in the plasma of rats after administration of the test compound, and the relevant pharmacokinetic parameters were calculated to examine oral bioavailability and pharmacokinetic properties of the compound in rats. Compound HuFGFR267 was administered intravenously and orally to SD rats. […]
Experimental Readout: Vd
Write the figure, then the unit, nothing else.

// `Cc1ccc(C(=O)Nc2ccc(CN3CCN(C)CC3)c(C(F)(F)F)c2)cc1C#Cc1cnc2cccnn12` : Vd value = 7.78 L/kg

====

Assay: Pharmacokinetic experiment in rat (IV and PO, plasma LC-MS/MS)
Conditions: SD, rat, plasma, po, 10 mg/kg
Experimental Readout: half-life (h)
Numbers only, in h.

// `Cc1ccc(C(=O)Nc2ccc(CN3CCN(C)CC3)c(C(F)(F)F)c2)cc1C#Cc1cnc2cccnn12` : half-life value = 8.29

====

Assignment: determine reported 10 nM inhibition ratio FGFR1 for the given compounds.
Molecular target: FGFR1 (Homo sapiens, UniProt P11362)
Experiment: Inhibition of receptor tyrosine kinase activity at molecular level (ELISA, Poly(Glu,Tyr)4:1 substrate phosphorylation)
Format: biochemical
Conditions: 10 nM compound; average of two independent experiments
Procedure: Enzyme reaction substrate Poly(Glu, Tyr)4:1 was diluted with potassium-free PBS (10 mM sodium phosphate buffer, 150 mM NaCl, pH 7.2-7.4) to 20 μg/mL. […] The reaction was conducted under 37° C. for 12-16 hours. […] The inhibition ratio of the sample was determined by the following formula: […] The IC50 values were obtained via four-parameter regression analysis using the software supplied with the microplate reader.
Answers are plain numbers.

Some solved cases for reference:
> print(dat)
                                   compound  readout.value
1  CN(C)CC=CC(=O)Nc1cnc(N)c(C#Cc2cc(C(=O)Nc3ccc(CN4CCN(C)CC4)c(C(F)(F)F)c3)ccc2Cl)c1 [Example 40]           58.2
2  Cc1ccc(C(=O)Nc2ccc(CN3CCN(C)CC3)c(C(F)(F)F)c2)cc1C#Cc1cccnc1N [Example 3]           52.4
3  CN1CCN(Cc2ccc(NC(=O)c3ccc(Cl)c(C#Cc4cccnc4N)c3)cc2C(F)(F)F)CC1.Cl [Example 52]           75.2

Bench note, FGFR1 (Homo sapiens, UniProt P11362): entry Cc1ccc(C#Cc2cccnc2N)cc1C(=O)Nc1ccc(CN2CCN(C)CC2)c(C(F)(F)F)c1 [Example 14] , its 10 nM inhibition ratio FGFR1 = 46.1

====

Assignment: determine reported 10 nM inhibition ratio RET for the given molecules.
Biological target: RET (Homo sapiens, UniProt P07949)
Sequence (P07949 29-1114): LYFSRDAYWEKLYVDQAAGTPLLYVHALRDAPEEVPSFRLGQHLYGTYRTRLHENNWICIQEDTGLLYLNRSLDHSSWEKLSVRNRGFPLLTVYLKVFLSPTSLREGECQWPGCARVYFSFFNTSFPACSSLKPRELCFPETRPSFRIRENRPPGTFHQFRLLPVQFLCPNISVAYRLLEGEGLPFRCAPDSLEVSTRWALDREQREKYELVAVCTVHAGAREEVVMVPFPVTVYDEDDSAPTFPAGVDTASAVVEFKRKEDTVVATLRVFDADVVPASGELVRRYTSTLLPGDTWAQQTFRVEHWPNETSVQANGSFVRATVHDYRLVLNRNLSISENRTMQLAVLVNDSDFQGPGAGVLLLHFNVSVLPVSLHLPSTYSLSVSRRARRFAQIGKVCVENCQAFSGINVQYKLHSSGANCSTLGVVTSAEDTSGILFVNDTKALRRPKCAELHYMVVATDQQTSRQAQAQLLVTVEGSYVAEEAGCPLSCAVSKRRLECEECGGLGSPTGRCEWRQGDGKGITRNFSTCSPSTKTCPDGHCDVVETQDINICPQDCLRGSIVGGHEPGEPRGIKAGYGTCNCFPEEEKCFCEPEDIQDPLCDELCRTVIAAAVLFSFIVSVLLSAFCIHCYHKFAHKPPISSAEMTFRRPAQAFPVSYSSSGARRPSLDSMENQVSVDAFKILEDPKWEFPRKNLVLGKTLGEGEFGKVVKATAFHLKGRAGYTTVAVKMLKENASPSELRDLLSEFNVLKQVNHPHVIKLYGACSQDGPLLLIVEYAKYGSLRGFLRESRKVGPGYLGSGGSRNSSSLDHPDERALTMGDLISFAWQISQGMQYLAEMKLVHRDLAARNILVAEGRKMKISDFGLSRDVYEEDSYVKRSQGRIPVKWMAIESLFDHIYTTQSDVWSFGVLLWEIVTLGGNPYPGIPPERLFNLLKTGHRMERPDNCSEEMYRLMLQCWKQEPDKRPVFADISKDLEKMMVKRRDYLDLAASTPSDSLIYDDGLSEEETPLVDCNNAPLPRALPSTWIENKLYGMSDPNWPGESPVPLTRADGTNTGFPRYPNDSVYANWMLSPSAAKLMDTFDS
Experiment: Inhibition of receptor tyrosine kinase activity at molecular level (ELISA, Poly(Glu,Tyr)4:1 substrate phosphorylation)
Type: biochemical
Details: 10 nM compound; average of two independent experiments
Answers are plain numbers.

> print(dat)
                            chemical.smiles  readout.value
1  Nc1ncccc1C#Cc1cc(C(=O)Nc2ccc(CN3CCNCC3)c(C(F)(F)F)c2)ccc1Cl           79.4
2  CN1CCN(Cc2ccc(NC(=O)c3cccc(C#Cc4cccnc4N)c3)cc2C(F)(F)F)CC1           57.7
3  CN1CCN(Cc2ccc(NC(=O)c3ccc(Cl)c(C#Cc4cc(C5CC5)cnc4N)c3)cc2C(F)(F)F)CC1           69.4

Attention now turns to another entry.
// `[2H]C([2H])([2H])N1CCN(Cc2ccc(NC(=O)c3ccc(Cl)c(C#Cc4cccnc4N)c3)cc2C(F)(F)F)CC1` : 10 nM inhibition ratio RET value = 87.0

====

Biological target: RET (Homo sapiens, UniProt P07949)
Assay: Inhibition of receptor tyrosine kinase activity at molecular level (ELISA, Poly(Glu,Tyr)4:1 substrate phosphorylation)
Format: biochemical
Details: 10 nM compound; average of two independent experiments
Assignment: determine reported 10 nM inhibition ratio RET for the given compounds.
Give bare numbers.

> print(dat)
                                   compound                   system.under.test  readout.value
1  COc1cnc(N)c(C#Cc2cc(C(=O)Nc3ccc(CN4CCN(C)CC4)c(C(F)(F)F)c3)ccc2Cl)c1  RET (Homo sapiens, UniProt P07949)           59.3
2  Cc1ncccc1C#Cc1cc(C(=O)Nc2ccc(CN3CCN(C)CC3)c(C(F)(F)F)c2)ccc1Cl [HuFGFR143, reference compound]  RET (Homo sapiens, UniProt P07949)           35.2
3  CN1CCN(Cc2ccc(NC(=O)c3ccc(Cl)c(C#Cc4cccnc4F)c3)cc2C(F)(F)F)CC1 [HuFGFR150, reference compound]  RET (Homo sapiens, UniProt P07949)           30.3

Kindly give each listed record's 10 nM inhibition ratio RET.
1. Cc1ccc(C(=O)Nc2ccc(CN3CCN(C)CC3)c(C(F)(F)F)c2)cc1C#Cc1cnc2cccnn12
2. COCCOc1cnc(N)c(C#Cc2cc(C(=O)Nc3ccc(CN4CCN(C)CC4)c(C(F)(F)F)c3)ccc2Cl)c1
3. CN1CCN(Cc2ccc(NC(=O)c3ccc(Cl)c(C#Cc4cc(OCCO)cnc4N)c3)cc2C(F)(F)F)CC1
4. Cc1ccc(C(=O)Nc2ccc(CN3CCN(C)CC3)c(C(F)(F)F)c2)cc1C#Cc1cccnc1N

1. 87.5
2. 69.5
3. 79.4
4. 69.1

Kindly give each listed record's 10 nM inhibition ratio RET.
1. CN1CCN(Cc2ccc(NC(=O)c3cc(C#N)cc(C#Cc4cccnc4N)c3)cc2C(F)(F)F)CC1
2. CN1CCC(Oc2ccc(NC(=O)c3ccc(Cl)c(C#Cc4cccnc4N)c3)cc2C(F)(F)F)CC1
3. CN(C)CCOc1cnc(N)c(C#Cc2cc(C(=O)Nc3ccc(CN4CCN(C)CC4)c(C(F)(F)F)c3)ccc2Cl)c1
4. CNCCOc1cnc(N)c(C#Cc2cc(C(=O)Nc3ccc(CN4CCN(C)CC4)c(C(F)(F)F)c3)ccc2Cl)c1
5. CN(C)CC=CC(=O)Nc1cnc(N)c(C#Cc2cc(C(=O)Nc3ccc(CN4CCN(C)CC4)c(C(F)(F)F)c3)ccc2Cl)c1
6. CN1CCN(Cc2ccc(NC(=O)c3ccc(Cl)c(C#Cc4cc(C(F)(F)F)cnc4N)c3)cc2C(F)(F)F)CC1
7. Cc1cc(C#Cc2cccnc2N)cc(C(=O)Nc2ccc(CN3CCN(C)CC3)c(C(F)(F)F)c2)c1
8. COc1ccc(C#Cc2cccnc2N)cc1C(=O)Nc1ccc(CN2CCN(C)CC2)c(C(F)(F)F)c1

1. 68.2
2. 77.3
3. 55.2
4. 79.3
5. 77.3
6. 70.8
7. 73.2
8. 61.2

Kindly give each listed record's 10 nM inhibition ratio RET.
1. Cc1ccc(C#Cc2cccnc2N)cc1C(=O)Nc1ccc(CN2CCN(C)CC2)c(C(F)(F)F)c1
2. CNc1cncc(C#Cc2cc(C(=O)Nc3ccc(CN4CCN(C)CC4)c(C(F)(F)F)c3)ccc2C)c1 [Example A34, reference compound]
3. CN1CCN(Cc2ccc(NC(=O)c3ccc(Cl)c(C#Cc4cc(OC(F)(F)F)cnc4N)c3)cc2C(F)(F)F)CC1
4. CN1CCN(Cc2ccc(NC(=O)c3cccc(C#Cc4nc(CO)cnc4N)c3)cc2C(F)(F)F)CC1

1. 57.6
2. 16.4
3. 60.0
4. 78.0
